tested on: HCT-116 colon; experiment: NCI tumour cell line growth inhibition, 48 h; in the data active = GI50 below about 0.43 µM; inactive = the rest
Labels: active, inactive

                                   compound    test_system  assigned_label
0  Cc1ccc2[nH]c(C(=O)NN3C(=O)CSC34CCCC(C)C4)c(-c3ccccc3)c2c1 (stereo not drawn)  HCT-116 colon        inactive
1  CCOC(=O)N1C/C(=C/c2ccc(OC)cc2)C(=O)/C(=C/c2ccc(OC)cc2)C1  HCT-116 colon          active
2  O=C1C(Cl)=C(Nc2cccc(C(F)(F)F)c2)C(=O)N1Cc1ccccc1Cl  HCT-116 colon        inactive

Source: PubChem BioAssay (NCI)
